The measured values listed here are drawn from ChEMBL document CHEMBL1921681.

ASSAY_SUMMARY: Selectivity ratio of CC50 for mock-infected human MT4 cells to EC50 for Human immunodeficiency virus 1 3B infected in human MT4 cells
Assay type: ADME, cell-based
CONDITIONS: read-out: Ratio CC50/EC50

SMILES_DATA | selectivity ratio
Cc1ccnc(SC(F)(F)c2nc3ccccc3o2)n1 | > 800
Cc1cc(C)nc(SC(F)(F)c2nc3ccccc3o2)n1 | > 100
Cc1ccnc(SC(F)(F)c2nc3c(Cl)cccc3o2)n1 | > 1000

###

Test system: Human immunodeficiency virus 1
ASSAY_SUMMARY: Antiviral activity against Human immunodeficiency virus 1 3B infected in human MT4 cells stably transformed with HIV1 LTR-EGFP after 3 days by fluorescence microscopic analysis
Type: functional, organism-based
CONDITIONS: MT4, 72 h

SMILES_DATA | UNIT_OF_MEASUREMENT | EC50
Cc1cc(C)nc(SC(F)(F)c2nc3ccccc3o2)n1 | nM | 950
Cc1ccnc(SC(F)(F)c2nc3cccc(C)c3o2)n1 | nM | 200
Cc1cccc2oc(C(F)(F)Sc3nccc(N)n3)nc12 | nM | 830
Cc1ccnc(SC(F)(F)c2nc3c(Cl)cccc3o2)n1 | nM | 98
Cc1ccnc(SC(F)(F)c2nc3cccc(Cl)c3o2)n1 | nM | 140
FC(F)(Sc1ncccn1)c1nc2ccccc2o1 | nM | 3140
CCc1ccnc(SC(F)(F)c2nc3ccccc3o2)n1 | nM | 6.4
